The reader will find reported Ratio Ki values listed item by item below.
Species on record: Homo sapiens
Assay: Selectivity ratio of Ki for cloned human dopamine D2 receptor to Ki for cloned human dopamine D3 receptor
Number only, no unit.

Tell me its Ratio Ki given COc1ccc(-c2cn(CCCCN3CCN(c4ccccc4OC)CC3)nn2)cc1 as the entry. 5.3

Tell me its Ratio Ki given COc1ccccc1N1CCN(CCCCn2cc(-c3ccc(N)cc3)nn2)CC1 as the entry. 73.6

More entries:
Tell me its Ratio Ki given COc1ccccc1N1CCN(CCCCn2cc(-c3ccc(Br)cc3)nn2)CC1 as the entry. 2

Tell me its Ratio Ki given COc1ccccc1N1CCN(CCCCn2cc(-c3cccnc3)nn2)CC1 as the entry. 1.4

Tell me its Ratio Ki given COc1ccccc1N1CCN(CCCCn2cc(-c3ccc(-c4cnco4)cc3)nn2)CC1 as the entry. 1

Tell me its Ratio Ki given COc1ccccc1N1CCN(CCCCn2cc(-c3ccccc3)nn2)CC1 as the entry. 2.8

----------
The reader will find reported Ki values listed item by item below.
Biological target: D(3) dopamine receptor (Homo sapiens, UniProt P35462)
Sequence (P35462 whole entry): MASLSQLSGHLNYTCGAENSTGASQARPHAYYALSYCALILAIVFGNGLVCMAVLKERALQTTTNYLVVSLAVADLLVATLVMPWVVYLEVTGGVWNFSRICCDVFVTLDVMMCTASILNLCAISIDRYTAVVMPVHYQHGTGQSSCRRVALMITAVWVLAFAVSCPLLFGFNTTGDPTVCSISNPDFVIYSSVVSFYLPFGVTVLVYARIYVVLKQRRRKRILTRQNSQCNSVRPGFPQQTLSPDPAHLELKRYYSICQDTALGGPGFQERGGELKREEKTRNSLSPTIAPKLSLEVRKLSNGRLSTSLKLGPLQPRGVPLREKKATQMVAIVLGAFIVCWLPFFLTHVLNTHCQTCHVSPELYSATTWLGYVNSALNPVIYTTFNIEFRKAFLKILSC
Experiment: Displacement of [3H]-spiperone from cloned human dopamine D3 receptor
Returns: string containing the number followed by the unit.

Tell me its Ki given COc1ccccc1N1CCN(CCCCn2cc(-c3ccccc3)nn2)CC1 as the entry. 81.2 nM

Now let's try a different one.
Tell me its Ki given COc1ccccc1N1CCN(CCCCn2cc(-c3ccc(N)cc3)nn2)CC1 as the entry. 2.7 nM

----------
Target: Dopamine receptors; D3 & D4 (Homo sapiens) (UniProt P35462+P21917)
Experiment: Selectivity ratio of Ki for cloned human dopamine D4 receptor to Ki for cloned human dopamine D3 receptor
Label scheme for Ratio Ki: lower than 4 is NO, 4 and above is YES.

Illustrative cases are given below, each with its answer.
Threshold query (Ratio Ki >= 4) on COc1ccccc1N1CCN(CCCCn2cc(-c3ccc(-c4cnco4)cc3)nn2)CC1 NO

Threshold query (Ratio Ki >= 4) on COc1ccccc1N1CCN(CCCCn2cc(-c3ccccc3)nn2)CC1 YES

Threshold query (Ratio Ki >= 4) on COc1ccccc1N1CCN(CCCCn2cc(-c3cccnc3)nn2)CC1 YES

Threshold query (Ratio Ki >= 4) on COc1ccccc1N1CCN(CCCCn2cc(-c3ccc(Br)cc3)nn2)CC1 NO

Threshold query (Ratio Ki >= 4) on COc1ccc(-c2cn(CCCCN3CCN(c4ccccc4OC)CC3)nn2)cc1 YES

Now look at this entry.
Threshold query (Ratio Ki >= 4) on COc1ccccc1N1CCN(CCCCn2cc(-c3ccc(N)cc3)nn2)CC1 YES

----------
Biological target: D(4) dopamine receptor (Homo sapiens, UniProt P21917)
Sequence (P21917 whole entry): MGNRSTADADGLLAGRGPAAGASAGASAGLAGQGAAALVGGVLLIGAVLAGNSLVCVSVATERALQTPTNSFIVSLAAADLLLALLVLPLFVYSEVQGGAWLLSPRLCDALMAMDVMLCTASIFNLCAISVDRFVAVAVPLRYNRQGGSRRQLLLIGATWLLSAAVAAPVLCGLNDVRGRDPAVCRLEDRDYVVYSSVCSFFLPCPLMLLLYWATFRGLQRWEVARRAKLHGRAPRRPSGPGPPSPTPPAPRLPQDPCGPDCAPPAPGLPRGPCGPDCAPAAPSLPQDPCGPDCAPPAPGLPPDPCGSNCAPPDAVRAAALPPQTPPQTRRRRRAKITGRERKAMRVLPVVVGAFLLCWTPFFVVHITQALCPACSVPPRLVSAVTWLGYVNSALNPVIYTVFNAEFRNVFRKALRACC
PARAMETER: Ki (nM)
Lab book: enter the figure in nM, no units written.

Tell me its Ki given COc1ccccc1N1CCN(CCCCn2cc(-c3ccc(Br)cc3)nn2)CC1 as the entry. 387

Tell me its Ki given COc1ccccc1N1CCN(CCCCn2cc(-c3ccccc3)nn2)CC1 as the entry. 639

More entries:
Tell me its Ki given COc1ccccc1N1CCN(CCCCn2cc(-c3ccc(-c4cnco4)cc3)nn2)CC1 as the entry. 426

----------
Molecular target: UniProt P21728
Sequence (P21728 whole entry): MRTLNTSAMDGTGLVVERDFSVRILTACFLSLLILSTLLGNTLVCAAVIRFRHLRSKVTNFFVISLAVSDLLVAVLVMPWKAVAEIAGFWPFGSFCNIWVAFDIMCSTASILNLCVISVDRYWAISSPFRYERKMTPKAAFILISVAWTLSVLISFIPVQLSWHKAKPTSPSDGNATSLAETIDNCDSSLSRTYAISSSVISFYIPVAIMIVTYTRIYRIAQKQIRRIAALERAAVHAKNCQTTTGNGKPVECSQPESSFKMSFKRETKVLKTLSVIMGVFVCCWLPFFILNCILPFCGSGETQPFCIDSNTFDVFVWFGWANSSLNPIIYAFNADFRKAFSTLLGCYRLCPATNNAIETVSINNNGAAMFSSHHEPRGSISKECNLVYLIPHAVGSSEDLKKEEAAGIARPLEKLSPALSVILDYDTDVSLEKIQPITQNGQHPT
Experiment: Displacement of [3H]-SCH23390 from cloned human dopamine D1 receptor at 1 uM relative to control
Label scheme for inhibition: lower than 40% is Not met, 40% and above is Met.

Illustrative cases are given below, each with its answer.
Threshold query (inhibition >= 40%) on COc1ccccc1N1CCN(CCCCn2cc(-c3ccc(N)cc3)nn2)CC1 Not met

Threshold query (inhibition >= 40%) on COc1ccccc1N1CCN(CCCCn2cc(-c3ccc(-c4cnco4)cc3)nn2)CC1 Met

Threshold query (inhibition >= 40%) on COc1ccc(-c2cn(CCCCN3CCN(c4ccccc4OC)CC3)nn2)cc1 Met

Now look at this entry.
Threshold query (inhibition >= 40%) on COc1ccccc1N1CCN(CCCCn2cc(-c3ccc(Br)cc3)nn2)CC1 Met

----------
Target: D(2) dopamine receptor (Homo sapiens, UniProt P14416)
Sequence (P14416 whole entry): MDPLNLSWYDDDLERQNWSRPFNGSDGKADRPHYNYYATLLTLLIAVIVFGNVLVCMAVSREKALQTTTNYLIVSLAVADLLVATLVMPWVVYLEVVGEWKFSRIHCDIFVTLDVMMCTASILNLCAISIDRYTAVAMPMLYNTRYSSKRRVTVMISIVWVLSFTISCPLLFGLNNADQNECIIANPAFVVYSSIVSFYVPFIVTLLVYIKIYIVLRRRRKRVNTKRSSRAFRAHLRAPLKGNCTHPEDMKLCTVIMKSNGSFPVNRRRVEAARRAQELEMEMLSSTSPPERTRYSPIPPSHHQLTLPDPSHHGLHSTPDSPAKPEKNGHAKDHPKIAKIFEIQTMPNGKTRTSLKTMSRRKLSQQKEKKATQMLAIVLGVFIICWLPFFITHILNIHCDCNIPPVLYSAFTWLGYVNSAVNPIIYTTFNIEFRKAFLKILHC
Test: Displacement of [3H]-spiperone from cloned human dopamine D2 receptor
Rule: Ki below 200 nM gives condition met. Equal to or above 200 nM gives condition not met.

Illustrative cases are given below, each with its answer.
Item COc1ccccc1N1CCN(CCCCn2cc(-c3ccc(Br)cc3)nn2)CC1 : Ki beneath 200 nM, strictly? condition not met

Item COc1ccccc1N1CCN(CCCCn2cc(-c3ccc(-c4cnco4)cc3)nn2)CC1 : Ki beneath 200 nM, strictly? condition met

Item COc1ccccc1N1CCN(CCCCn2cc(-c3ccccc3)nn2)CC1 : Ki beneath 200 nM, strictly? condition not met

More entries:
Item COc1ccccc1N1CCN(CCCCn2cc(-c3cccnc3)nn2)CC1 : Ki beneath 200 nM, strictly? condition met

Item COc1ccc(-c2cn(CCCCN3CCN(c4ccccc4OC)CC3)nn2)cc1 : Ki beneath 200 nM, strictly? condition not met
